Values from paper PMC11934087

- subjectOfTest: T1, Glutathione S-transferase (GST) tagged HPV-16 E6 (Human papillomavirus type 16 (HPV-16), UniProt P03126 1-158)
- T1 construct: Oncoprotein E6 of human papillomavirus type 16; GST fusion printed as 47 kDa; also called GST-E6; E6-GST; source: E. coli BL21, purified (glutathione agarose)
- measurementNotes: fluorescence polarisation
- measurementContext: both partners purified
Where no end group is shown, it is not given here.
propertyLabel: pEC50
Give only the number. pEC50 is defined as minus log10 of concentration in molar units.

>  <binder>
AAAELTLQELL-{Dap(acrylamide)} (not fully specified (N-terminus)) [nonfluorescent acrylamide covalent peptide 2b]

>  <pEC50>
5.68

$$$$

# context switch: different binder, same pEC50
Problem: I am curious: what pEC50 value has been reported for AAAELTLQELL-{Dap(bromoacetamide)} (not fully specified (N-terminus)) [nonfluorescent bromoacetamide covalent peptide 3b] ?
Solution: 5.62
